B1: Gamma-crystallin C, residues 91 to 170; numbered along this chain, P07315 (parent)
chain: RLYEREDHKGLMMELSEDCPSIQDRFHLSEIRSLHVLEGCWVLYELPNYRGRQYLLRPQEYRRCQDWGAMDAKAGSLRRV

variants of: B1; test: abundance fitness (aPCA) (normalised: wild type 0, dead -1); higher = more abundant; growth selection in yeast, the domain comes from the species named; settings: Homo sapiens
Recorded abundance fitness for the following variants
// return a plain number; no unit text

Below: 3 variants and their reported abundance fitness.
mutation_key=R5S observation_type="abundance fitness" numeric_result=-0.144
mutation_key=C19Y observation_type="abundance fitness" numeric_result=-0.712
mutation_key=S16A observation_type="abundance fitness" numeric_result=-0.043

q: Fill in the blank: the reported abundance fitness of D7F is ____.
a: -0.203

q: Lookup R62D
a: -0.619

q: Next up: L15A
a: -0.477

q: Another variant to look at: M70I
a: 0.097

q: Then what about the variant R63D ?
a: -0.58

q: M70D , same question.
a: 0.094

q: Same thing, different variant: L11E
a: 0

q: Would you mind doing C40N as well?
a: 0.119

q: What do you get for Q59I ?
a: -0.145

q: Also need K9Y , thanks.
a: -0.467

q: Proceed to H27Q
a: -0.034

q: Next: Y49A
a: -1.04

q: Proceed to R50K
a: -0.029

q: For H35F then?
a: -0.325

q: Ok, now L11G
a: -0.092

q: Same question for F26Q please.
a: -0.787

q: Field entry: A74Q
a: -0.797
